Reference for the values: patent US11912693B2

- MEASUREMENT_TARGET: human sphingosine-1-phosphate receptor 1 (S1P1) (Homo sapiens (Human))
- METHOD_NOTES: β-Arrestin2 recruitment assay (PathHunter), S1P1 CHO-K1 cells
- Format: cell-based
- PARTICULARS: CHO-K1; efficacy (SPAN) normalized to fingolimod; read-out: hS1P1 B-arrestin2 SPAN
- Sequence (P21453 whole entry, looked up): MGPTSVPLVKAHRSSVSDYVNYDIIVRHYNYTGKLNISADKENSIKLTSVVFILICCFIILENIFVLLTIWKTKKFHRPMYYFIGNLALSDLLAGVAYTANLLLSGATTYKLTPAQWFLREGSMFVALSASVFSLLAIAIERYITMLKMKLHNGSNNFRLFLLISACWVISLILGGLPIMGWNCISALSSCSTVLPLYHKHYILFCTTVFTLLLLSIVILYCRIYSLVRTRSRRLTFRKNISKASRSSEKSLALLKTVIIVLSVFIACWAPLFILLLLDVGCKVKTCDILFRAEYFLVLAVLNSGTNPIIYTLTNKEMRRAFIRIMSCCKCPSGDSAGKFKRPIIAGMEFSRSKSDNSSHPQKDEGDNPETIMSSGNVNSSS
- Sequence (P32121 whole entry partner, looked up): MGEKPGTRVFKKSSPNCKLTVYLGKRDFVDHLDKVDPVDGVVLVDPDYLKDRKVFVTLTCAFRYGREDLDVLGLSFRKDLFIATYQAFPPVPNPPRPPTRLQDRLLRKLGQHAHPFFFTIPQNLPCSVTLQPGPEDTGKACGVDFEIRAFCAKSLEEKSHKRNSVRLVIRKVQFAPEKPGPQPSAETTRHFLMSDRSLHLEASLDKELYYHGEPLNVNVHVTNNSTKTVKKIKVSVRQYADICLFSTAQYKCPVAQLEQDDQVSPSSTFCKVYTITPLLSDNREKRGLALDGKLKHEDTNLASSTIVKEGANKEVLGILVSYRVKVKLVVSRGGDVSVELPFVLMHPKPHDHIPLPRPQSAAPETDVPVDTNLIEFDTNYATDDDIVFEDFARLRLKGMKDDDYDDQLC
Entries and their measured Emax follow.
ASSAY_READOUT: Emax

[[record]]
molecule = "Cc1ccsc1-c1noc(-c2ccc3c(c2)nnn3CC(C)(C)O)n1"
observed_value = "> 75%"

[[record]]
molecule = "CC(C)n1ccc2cc(-c3nc(-c4ccccc4O)no3)ccc21"
observed_value = "> 75%"

[[record]]
molecule = "Cc1cnccc1-c1nc(-c2ccc3c(c2)nnn3C(C)C)no1"
observed_value = "< 75%"

[[record]]
molecule = "c1cc(-c2noc(-c3ccc4c(c3)nnn4C3CC3)n2)ccn1"
observed_value = "< 75%"

[[record]]
molecule = "CCC1(CC)CC(=O)c2cc(-c3nnc(-c4ccc5c(c4)nnn5C(C)C)o3)ccc2O1"
observed_value = "< 75%"

[[record]]
molecule = "Cc1cc(C)cc(Cc2noc(-c3ccc4c(c3)nnn4C(C)C)n2)c1"
observed_value = "< 75%"

[[record]]
molecule = "CC(C)n1nnc2cc(-c3nc(-c4ccncc4)no3)ccc21"
observed_value = "> 75%"

[[record]]
molecule = "N#Cc1cc(-c2nc(-c3ccc4c(c3)CCC(=O)N4)no2)ccc1N"
observed_value = "< 75%"

[[record]]
molecule = "COc1ccccc1-c1noc(-c2ccc3c(c2)nnn3C2CCOCC2)n1"
observed_value = "< 75%"

[[record]]
molecule = "CC(C)n1nnc2cc(-c3nnc(-c4ccccc4O)s3)ccc21"
observed_value = "< 75%"

[[record]]
molecule = "CC(F)CNc1ccc(-c2nc(-c3ccc4c(c3)CCC(=O)N4)no2)cc1C#N (stereo not drawn)"
observed_value = "> 75%"

[[record]]
molecule = "Cc1ccncc1-c1noc(-c2ccc3c(c2)nnn3C2CCOCC2)n1"
observed_value = "> 75%"

[[record]]
molecule = "CC(C)n1nnc2cc(-c3nc(-c4ccc5nncn5c4)no3)ccc21"
observed_value = "< 75%"

[[record]]
molecule = "CC(C)n1nnc2cc(-c3nc4c(o3)COc3ccccc3-4)ccc21"
observed_value = "> 75%"

[[record]]
molecule = "CC(C)n1nnc2cc(-c3nc(-c4ccccc4N)co3)ccc21"
observed_value = "> 75%"

[[record]]
molecule = "CC(C)(O)Cn1nnc2cc(-c3nc(-c4cccc5cc[nH]c45)no3)ccc21"
observed_value = "< 75%"

[[record]]
molecule = "O=C1CC2(CCC(F)(F)CC2)Oc2ccc(-c3nc(-c4cccnc4)no3)cc21"
observed_value = "< 75%"

[[record]]
molecule = "Cc1ccc(-c2nc(-c3ccc4c(c3)nnn4C(C)C)no2)s1"
observed_value = "< 75%"


* * *

The compounds listed here are annotated with their Emax.
- MEASUREMENT_TARGET: human sphingosine-1-phosphate receptor 1 (S1P1) (Homo sapiens (Human), UniProt P21453)
- METHOD_NOTES: β-Arrestin2 recruitment assay (PathHunter), S1P1 CHO-K1 cells
- Type: cell-based
- PARTICULARS: CHO-K1; efficacy (SPAN) normalized to fingolimod; read-out: hS1P1 B-arrestin2 SPAN
ASSAY_READOUT: Emax

[[record]]
sample_smiles = "COc1ccccc1-c1noc(-c2ccc3c(c2)nnn3C2CC2)n1"
measurement_target = "human sphingosine-1-phosphate receptor 1 (S1P1) (Homo sapiens (Human), UniProt P21453)"
assay_readout = "Emax"
observed_value = "> 75%"

[[record]]
sample_smiles = "CCC1(CC)CC(=O)c2cc(-c3nc(-c4ccncc4O)no3)ccc2O1"
measurement_target = "human sphingosine-1-phosphate receptor 1 (S1P1) (Homo sapiens (Human), UniProt P21453)"
assay_readout = "Emax"
observed_value = "> 75%"

[[record]]
sample_smiles = "N#Cc1cc(-c2nc(-c3ccc4c(c3)CCC(=O)N4)no2)ccc1NCC1CC1"
measurement_target = "human sphingosine-1-phosphate receptor 1 (S1P1) (Homo sapiens (Human), UniProt P21453)"
assay_readout = "Emax"
observed_value = "> 75%"

[[record]]
sample_smiles = "CC(=O)Nc1ccccc1-c1coc(-c2ccc3c(c2)nnn3C(C)C)n1"
measurement_target = "human sphingosine-1-phosphate receptor 1 (S1P1) (Homo sapiens (Human), UniProt P21453)"
assay_readout = "Emax"
observed_value = "< 75%"

[[record]]
sample_smiles = "COc1cccc(-c2nc(-c3ccc4c(c3)nnn4C3CCCC3)no2)c1"
measurement_target = "human sphingosine-1-phosphate receptor 1 (S1P1) (Homo sapiens (Human), UniProt P21453)"
assay_readout = "Emax"
observed_value = "< 75%"

[[record]]
sample_smiles = "COc1cc(C)c2nc(-c3ccc4c(c3)nnn4C(C)C)oc2c1"
measurement_target = "human sphingosine-1-phosphate receptor 1 (S1P1) (Homo sapiens (Human), UniProt P21453)"
assay_readout = "Emax"
observed_value = "> 75%"

[[record]]
sample_smiles = "Brc1ccccc1-c1nc(-c2ccc3c(c2)nnn3CC2CC2)no1"
measurement_target = "human sphingosine-1-phosphate receptor 1 (S1P1) (Homo sapiens (Human), UniProt P21453)"
assay_readout = "Emax"
observed_value = "> 75%"

[[record]]
sample_smiles = "CC(C)Nc1ccc(-c2nc(-c3ccc4c(c3)CC(=O)N4)no2)cc1C#N"
measurement_target = "human sphingosine-1-phosphate receptor 1 (S1P1) (Homo sapiens (Human), UniProt P21453)"
assay_readout = "Emax"
observed_value = "> 75%"

[[record]]
sample_smiles = "CC(C)n1nnc2cc(-c3noc(C4CCC(F)(F)CC4)n3)ccc21"
measurement_target = "human sphingosine-1-phosphate receptor 1 (S1P1) (Homo sapiens (Human), UniProt P21453)"
assay_readout = "Emax"
observed_value = "< 75%"


* * *

Catalogue of compounds with associated Emax
- MEASUREMENT_TARGET: human sphingosine-1-phosphate receptor 1 (S1P1) (Homo sapiens (Human), UniProt P21453)
- METHOD_NOTES: β-Arrestin2 recruitment assay (PathHunter), S1P1 CHO-K1 cells
- Type: cell-based
- PARTICULARS: CHO-K1; efficacy (SPAN) normalized to fingolimod; read-out: hS1P1 B-arrestin2 SPAN
ASSAY_READOUT: Emax

[[record]]
sample_smiles = "N#Cc1cc(-c2nnc(-c3ccc4[nH]cnc4c3)o2)ccc1NCC1CC1"
assay_readout = "Emax"
observed_value = "> 75%"

[[record]]
sample_smiles = "CCC1(CC)CC(=O)c2cc(-c3nc(-c4cn[nH]c4)no3)ccc2O1"
assay_readout = "Emax"
observed_value = "> 75%"

[[record]]
sample_smiles = "CC(C)n1nnc2cc(-c3noc(-c4ccc(F)cc4)n3)ccc21"
assay_readout = "Emax"
observed_value = "< 75%"

[[record]]
sample_smiles = "CC(C)n1nnc2cc(-c3nc(-c4ccccc4C(F)(F)F)co3)ccc21"
assay_readout = "Emax"
observed_value = "> 75%"

[[record]]
sample_smiles = "Cc1cnccc1-c1nc(-c2ccc3c(ccn3C(C)C)c2)no1"
assay_readout = "Emax"
observed_value = "> 75%"

[[record]]
sample_smiles = "COc1ccccc1-c1nc(-c2ccc3c(c2)nnn3C(C)(C)CO)no1"
assay_readout = "Emax"
observed_value = "> 75%"

[[record]]
sample_smiles = "N#Cc1cc(-c2nnc(-c3ccc4[nH]ncc4c3)o2)ccc1NCC(F)F"
assay_readout = "Emax"
observed_value = "> 75%"

[[record]]
sample_smiles = "CC(C)n1nnc2cc(-c3nc(-c4ccccc4Br)no3)ccc21"
assay_readout = "Emax"
observed_value = "> 75%"

[[record]]
sample_smiles = "CC1(C)CC(=O)c2cc(-c3nc(-c4ccncc4)no3)ccc2O1"
assay_readout = "Emax"
observed_value = "< 75%"


* * *

- MEASUREMENT_TARGET: human sphingosine-1-phosphate receptor 1 (S1P1) (Homo sapiens (Human), UniProt P21453)
- METHOD_NOTES: Inhibition of cAMP production (HTRF cAMP HiRange), S1P1 CHO-K1 cells
- Type: cell-based
- PARTICULARS: CHO-K1; efficacy (SPAN) normalized to fingolimod; read-out: hS1P1 cAMP SPAN
- Sequence (P21453 whole entry, looked up): as the sequence (P21453 whole entry, looked up) above
ASSAY_READOUT: Emax

[[record]]
compound = "CCC1(CC)CC(=O)c2cc(-c3nc(-c4ccnc(OC)c4)no3)ccc2O1"
assay_readout = "Emax"
observed_value = "< 75%"

[[record]]
compound = "COc1cccc(-c2nc(-c3ccc4c(c3)nnn4C(C)C)no2)c1"
assay_readout = "Emax"
observed_value = "< 75%"

[[record]]
compound = "COc1ccc(-c2noc(-c3ccc4c(c3)nnn4CC(C)(C)O)n2)c(C)c1"
assay_readout = "Emax"
observed_value = "> 75%"

[[record]]
compound = "COc1ccccc1-c1nnc(-c2ccc3[nH]c(=O)oc3c2)o1"
assay_readout = "Emax"
observed_value = "< 75%"

[[record]]
compound = "CCC1(CC)CC(=O)c2cc(-c3nc(-c4ccc5[nH]cnc5c4)no3)ccc2O1"
assay_readout = "Emax"
observed_value = "< 75%"

[[record]]
compound = "CC(C)n1nnc2cc(-c3nc(-c4ccccc4C(F)(F)F)co3)ccc21"
assay_readout = "Emax"
observed_value = "> 75%"

[[record]]
compound = "N#Cc1cc(-c2nc(-c3ccc4c(c3)CCC(=O)N4)no2)ccc1NCCF"
assay_readout = "Emax"
observed_value = "> 75%"

[[record]]
compound = "CC(C)n1nnc2cc(-c3noc(-c4cnccn4)n3)ccc21"
assay_readout = "Emax"
observed_value = "< 75%"

[[record]]
compound = "CC1(C)CCC2(CC1)CC(=O)c1cc(-c3nc(-c4ccncc4)no3)ccc1O2"
assay_readout = "Emax"
observed_value = "< 75%"

[[record]]
compound = "CCC1(CC)CC(=O)c2cc(-c3nc(-c4ccncc4C(F)(F)F)no3)ccc2O1"
assay_readout = "Emax"
observed_value = "> 75%"

[[record]]
compound = "CCC1(CC)CC(=O)c2cc(-c3nc(-c4ccccc4O)no3)ccc2O1"
assay_readout = "Emax"
observed_value = "< 75%"

[[record]]
compound = "Cc1cc(C)cc(-c2noc(-c3ccc4c(c3)nnn4C(C)C)n2)c1"
assay_readout = "Emax"
observed_value = "> 75%"

[[record]]
compound = "N#Cc1cc(-c2nc(-c3ccc4c(c3)CCC(=O)N4)no2)ccc1N"
assay_readout = "Emax"
observed_value = "< 75%"

[[record]]
compound = "CC(C)n1nnc2cc(-c3nc(-c4nccn4C)no3)ccc21"
assay_readout = "Emax"
observed_value = "> 75%"

[[record]]
compound = "N#Cc1cc(-c2nnc(-c3ccc4[nH]cnc4c3)o2)ccc1NC1CC1"
assay_readout = "Emax"
observed_value = "> 75%"

[[record]]
compound = "N#Cc1cc(-c2nnc(-c3ccc4[nH]cnc4c3)o2)ccc1NCCF"
assay_readout = "Emax"
observed_value = "> 75%"

[[record]]
compound = "CCC1(CC)CC(=O)c2cc(-c3nc(-c4ccncc4OC)no3)ccc2O1"
assay_readout = "Emax"
observed_value = "> 75%"

[[record]]
compound = "CC(C)CCn1nnc2cc(-c3nc(-c4ccccc4)no3)ccc21"
assay_readout = "Emax"
observed_value = "< 75%"

[[record]]
compound = "CCC1(CC)CC(=O)c2cc(-c3nsc(-c4cccnc4)n3)ccc2O1"
assay_readout = "Emax"
observed_value = "> 75%"

[[record]]
compound = "CC(C)(CO)n1nnc2cc(-c3noc(-c4cnccc4C(F)(F)F)n3)ccc21"
assay_readout = "Emax"
observed_value = "> 75%"

[[record]]
compound = "COc1cccnc1-c1noc(-c2ccc3c(c2)nnn3C2CCCC2)n1"
assay_readout = "Emax"
observed_value = "< 75%"

[[record]]
compound = "C=CCNc1ccc(-c2ccc(-c3ccc4c(c3)nnn4C(C)C)cc2)cc1C#N"
assay_readout = "Emax"
observed_value = "> 75%"

[[record]]
compound = "Cc1cc(C)cc(Cc2noc(-c3ccc4c(c3)nnn4C(C)C)n2)c1"
assay_readout = "Emax"
observed_value = "< 75%"

[[record]]
compound = "C=CCNc1ccc(-c2nc(-c3ccc4c(c3)CC(=O)N4)no2)cc1C#N"
assay_readout = "Emax"
observed_value = "> 75%"

[[record]]
compound = "Clc1ccc(-c2noc(-c3ccc4c(c3)nnn4C3CCOCC3)n2)s1"
assay_readout = "Emax"
observed_value = "< 75%"

[[record]]
compound = "CNc1ccccc1-c1nc(-c2ccc3c(c2)nnn3C(C)C)no1"
assay_readout = "Emax"
observed_value = "< 75%"

[[record]]
compound = "Cc1ccccc1-c1noc(-c2ccc3nnn(C(C)C)c3c2)n1"
assay_readout = "Emax"
observed_value = "< 75%"

[[record]]
compound = "Cc1cc(-c2noc(-c3ccc4c(c3)nnn4C(C)C)n2)c(C)o1"
assay_readout = "Emax"
observed_value = "> 75%"

[[record]]
compound = "COc1ccc(-c2noc(-c3ccc4c(c3)nnn4C3CCCC3)n2)c2ccccc12"
assay_readout = "Emax"
observed_value = "< 75%"

[[record]]
compound = "CC(=O)Nc1ccccc1-c1coc(-c2ccc3c(c2)nnn3C(C)C)n1"
assay_readout = "Emax"
observed_value = "< 75%"

[[record]]
compound = "COc1cccc2nc(-c3ccc4c(c3)nnn4C(C)C)oc12"
assay_readout = "Emax"
observed_value = "> 75%"

[[record]]
compound = "CC(C)n1nnc2cc(-c3nc(-c4cccnc4Cl)no3)ccc21"
assay_readout = "Emax"
observed_value = "> 75%"

[[record]]
compound = "Cc1ccccc1C(C)c1noc(-c2ccc3c(c2)nnn3C(C)C)n1 (stereo not drawn)"
assay_readout = "Emax"
observed_value = "< 75%"

[[record]]
compound = "CC(C)Nc1ccc(-c2nc(-c3ccc4c(c3)CC(=O)N4)no2)cc1C#N"
assay_readout = "Emax"
observed_value = "> 75%"

[[record]]
compound = "Cc1ccc(-c2noc(-c3ccc4c(c3)nnn4C3CCCCC3)n2)cc1"
assay_readout = "Emax"
observed_value = "< 75%"

[[record]]
compound = "CCC1(CC)CC(=O)c2cc(-c3nc(-c4ccc(S(N)(=O)=O)cc4)no3)ccc2O1"
assay_readout = "Emax"
observed_value = "> 75%"

